Assay: Drug level in mouse brain at 30 mg/kg, po after 4 hrs
Format: ADME, organism-based
Design: dose 30 mg/kg, route oral
Conditions: read-out: Drug uptake
Threshold 3 µM. concentration at 4 h below it: met. concentration at 4 h at it or above: not met.

Hello, is concentration at 4 h of the following compound strictly smaller than 3 µM? COc1cc(-c2nc3n(n2)CCC[C@H]3c2ccccc2C(F)(F)F)ccc1-n1cnc(C)c1
not met

Hello, is concentration at 4 h of the following compound strictly smaller than 3 µM? COc1cc(-c2nc3n(n2)CCC[C@H]3c2ccc(F)cc2C)ccc1-n1cnc(C)c1
not met

Hello, is concentration at 4 h of the following compound strictly smaller than 3 µM? COc1nc(-c2nc3n(n2)CCC[C@H]3c2ccccc2C(F)(F)F)ccc1-n1cnc(C)c1
met

Hello, is concentration at 4 h of the following compound strictly smaller than 3 µM? COc1cc(-c2nc3n(n2)CCO[C@H]3c2ccccc2C(F)(F)F)ccc1-n1cnc(C)c1
not met

Pending compound:
Hello, is concentration at 4 h of the following compound strictly smaller than 3 µM? COc1cc(C(=O)NCc2cccc(-c3ccccc3)c2)ccc1-n1cnc(C)c1
met
